# assay.method.text: NCI Yeast Anticancer Drug Screen. Data for the bub3 strain (AID 167)
# run.parameters: S. cerevisiae bub3 mutant strain, at 50.0 µM
The panel holds about 79,000 compounds, 15% with a hit somewhere; the sample as a whole holds those more often. Activity calls are given as the source filed them. No stated cut-off is given here; in the data, active means growth inhibition above about 70%; inactive means the rest.
Labels: true for active, false for inactive

> print(dat)
                                    molecule  assigned.class
 1              CC(C)Oc1ccc(C(N)=S)c2ccccc12           false
 2  O=C1N(c2ccccc2)C(=O)C2(SC=NN2Cc2ccccc2)N1c1ccccc1 (stereo not given)           false
 3          O=[N+]([O-])c1cc(C(F)(F)F)ccc1Cl           false
 4  CC(C)(C)NCC(CN1CCOCC1)C(=O)c1ccccc1 (stereo not given)            true
 5                             CCN=C(C#N)NCC           false
 6  C=CC1(C(=O)O)CCC(C(C)(C)C)CC1 (stereo not given)           false
 7  COc1cc(O)c2c(c1)C(=O)c1cc3c(c(O)c1C2=O)C(O)C(OC)C(C)(O)C3O (stereo not given)           false
 8                    c1cc(CNCCN2CCNCC2)ccn1           false
 9  CC(=O)C1C(=O)C(=O)N(c2ccc(Br)cc2)C1=O (stereo not given)           false
10  CC1CCCCCN1CCC(=O)c1ccccc1 (stereo not given)           false
11  COc1ccc(N2N=NCC2c2ccccc2[N+](=O)[O-])cc1 (stereo not given)           false
12    COc1cccc(NC(=O)CSc2nnc(Cc3ccccc3)o2)c1           false
13                   CCc1cc(-c2cc(CC)on2)no1           false
14              Cn1c[n+](-c2ccccc2)c([S-])n1           false
15               Cc1cc(S(N)(=O)=O)c2ncccc2c1           false
16  NC(CCC(=O)NC(CSCNC(=O)Nc1ccc(Cl)cc1)C(=O)NCC(=O)O)C(=O)O (stereo not given)           false
17                       Cc1nc2ccccc2c(=O)o1           false
18  CCOC(=O)C(Cc1ccc(OCc2ccccc2)c(OCc2ccccc2)c1)(NC=O)C(=O)OCC           false
19  CCC(=O)OCC(OC(=O)CC)c1ccccc1 (stereo not given)           false
20  O=c1c2cc([N+](=O)[O-])ccc2[nH]n1Cc1ccccc1Cl           false
21                   OC1(C#CC2(O)CCCC2)CCCC1           false
22          O=C(CCc1ccc(O)c(O)c1)OCCc1ccccc1            true
23  CCc1n[nH]c(=O)n1N1C(=O)C2CCCCC2C1=O (stereo not given)           false
24                    CCCCCCCC(C(=O)O)C(=O)O           false
25      CCCCCCC1OCCC(C)O1 (stereo not given)           false
26             COc1ccc(/C=C/C=C/C(=O)O)cc1OC           false
27    COC(=O)/C=C/C(=N/N(C)c1ccccc1)c1ccccc1           false
28            NC(=O)C12CC3CC(CC(Br)(C3)C1)C2           false
29   CC1N=C(c2ccccc2)SC1C (stereo not given)           false
30  COC(=O)O[C@H]1CC[C@@]2(C)C(=CC[C@H]3[C@@H]4CC[C@H]([C@H](C)CCCC(C)C)[C@@]4(C)CC[C@@H]32)C1           false
31  CN(C)S(=O)(=O)c1ccc(CCc2ccc(S(=O)(=O)N(C)C)cc2)cc1           false
32  CCOC(=O)NC(=O)c1cn(CCCCCCCCCCC(=O)NCCCN2CCN(CCCNC(=O)CCCCCCCCCCn3cc(C(=O)NC(=O)OCC)c(=O)[nH]c3=O)CC2)c(=O)[nH]c1=O           false
33  Cc1ccccc1/C=N/Nc1ccc([N+](=O)[O-])cc1[N+](=O)[O-]           false
34                  NC(=O)c1nnc2c(F)cccc2c1N           false
35  CC(=O)OCC(OC(C)=O)C(OC(C)=O)C(OC(C)=O)C(OC(C)=O)C(C=O)OC(C)=O (stereo not given)           false
36                            Nc1ccc[nH]c1=O           false
37  CCCCCCCCCCCCC/C=C/CC(CC(=O)Nc1ccc(-n2c(=O)cc(C)n2C)cc1)C(=O)O (stereo not given)           false
38          C=C(C)C(=O)OCCOCCOCCOC(=O)C(=C)C           false
39                 CC(=O)CC(=O)NCc1cccc(C)n1           false
40                    Ic1ccc(N=Nc2ccccc2)cc1           false
41  CCOC(=O)CCC(NC(=O)c1ccc(Nc2nc3cc(C(F)(F)F)ccc3nc2C(=O)OCC)cc1)C(=O)OCC (stereo not given)           false
42  O=C(N/N=C\c1c[nH]c2ccccc12)N/N=C/c1c[nH]c2ccccc12           false
43                        C/C=C/Cc1ccc(O)cc1           false
44  C=C1CC[C@H]2C(C)=CC[C@@H]3[C@H](OC(=O)[C@H]3CN(C)C)[C@@H]12           false
45  O=C(c1ccccc1)C1Nc2ccccc2CO1 (stereo not given)           false
46           O=c1cc2n(c(=O)n1-c1ccccc1)CCCC2           false
47                     Cc1cccc(NCc2ccncc2)n1           false
48  N#Cc1nc(-c2cc([N+](=O)[O-])cc([N+](=O)[O-])c2)oc1N           false
49                      N#C/C=C\c1ccc(Cl)cc1           false
50                       CCNC1(C(=O)O)CCCCC1           false
